# assay: NCI Yeast Anticancer Drug Screen. Data for the cln2 rad14 strain (AID 165);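 further: 0% = growth equal to vehicle treated cultures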
# condition_details: S. cerevisiae cln2 rad14 strain, at 5.0 µM (retest, dose inferred, filed as 0.5), stronger effect = higher value
# Protocol: Growth inhibition of yeast strains with defined genetic alterations is measured as a screen for potential anti-cancer activity. Selected strains with alterations in DNA damage repair or cell cycle control were exposed to compounds and growth inhibition was measured relative to vehicle treated controls. The strain used in this assay is cln2 rad14
The panel holds about 79,000 compounds, 15% with a hit somewhere; the sample as a whole holds those more often.
List of growth inhibition values.
Value expressed in %; do not type the unit.

| molecule | growth inhibition [%] |
| --- | --- |
| C[C@]12C[C@H](c3ccccc3)Nc3ccccc3N1C(c1ccccc1)=NO2 | 9 |
| Cc1ccc(/C=C/C(=O)/C=C/c2ccc(C)o2)o1 | 42 |
| COc1cccc(/C=C/C(C)=O)c1OC | -4 |
| CNC(=S)N/N=C(\C=N\NC(=S)NC)c1ccccc1 | 9 |
| O=c1c2c3c(sc2nc2n1N=C(c1ccc(Br)cc1)CS2)CCCC3 | 17 |

Entry under test: Cc1noc(NS(=O)(=O)c2ccc(N=Nc3cc(N=Nc4ccc(S(=O)(=O)Nc5onc(C)c5C)cc4)c4c(NC(=O)C(Cl)Cl)cccc4c3O)cc2)c1C (tested in a mixture with another compound) . Its growth inhibition was 96

Entry under test: C=CCNC(=S)N/N=C(\CCC)c1ccccn1 . Its growth inhibition was 96

Entry under test: N#Cc1ccc(Oc2nc3ccccc3nc2-c2ccccc2)cc1 . Its growth inhibition was -6

Entry under test: c1ccc2c3ccn4ccc5c6ccccc6[nH]c5c4c-3nc2c1 . Its growth inhibition was 24

Entry under test: COc1cc(O)c2c(=O)c3cccc(C)c3[nH]c2c1 . Its growth inhibition was 14

Entry under test: COc1cccc2c1C(=O)c1c(O)c3c(c(O)c1C2=O)C[C@@](O)(/C(C)=N/NS(C)(=O)=O)C[C@@H]3OC1CC(N)C(O)C(C)O1 (some centres undefined) . Its growth inhibition was 15

Entry under test: O=C(Nc1nc2c(ncn2C2CC(OC(=O)c3ccccc3)C(COC(=O)c3ccccc3)O2)c(=O)[nH]1)c1ccccc1 (centres undefined) . Its growth inhibition was 6

Entry under test: CC(C)c1ccc2c(c1)CCC1C(C)(C(=O)O)CCCC21C (centres undefined) . Its growth inhibition was 8

Reference source: PubChem BioAssay (NCI)
